Parameter Activity: see the listing below.
Protocol text: Induction of H2S release in phosphate buffer at 100 uM measured upto 150 mins under L-cysteine stimulated condition by microplate reader analysis
Applied conditions: 2.5 h
Write the number in µM without appending the unit.

Worked examples, 5 compounds total:
Record request: Activity value, item O=C(O)CCCCC1CCSS1 (stereo unspecified) 20

Give its Activity value. Item: "C=C[C@]1(C)CC[C@@H](C(=C)COC(=O)c2c(F)cccc2C(=O)OCCOc2ccc(-c3cc(=S)ss3)cc2)C[C@H]1C(=C)C" 100

Find the recorded Activity belonging to "NC(=S)c1ccc(O)cc1" and report it. 50

What value of Activity has been reported for the following compound? "C=C[C@]1(C)CC[C@@H](C(=C)COC(=O)c2ccccc2C(=O)OCCOc2ccc(-c3cc(=S)ss3)cc2)C[C@H]1C(=C)C" 100

// query Activity value for entry "C=C[C@]1(C)CC[C@@H](C(=C)COC(=O)CCC(=O)OCCOc2ccc(-c3cc(=S)ss3)cc2)C[C@H]1C(=C)C" 100

With those in mind, consider the next compound.
GET /values?readout=Activity&item= C=C[C@]1(C)CC[C@@H](C(=C)COC(=O)C(NC(=O)CCC(=O)OCCOc2ccc(-c3cc(=S)ss3)cc2)C(C)CC)C[C@H]1C(=C)C (stereo partly specified) 100
